target: HLA DRB4*0101 (human); assay: competition with 125I probe peptide, purified HLA; crude peptide batch
metric_name: pIC50
Bear in mind: pIC50 is minus log10 of a mol/L concentration; give just that figure.

Reported pIC50 of LQAIELQLTLETIYN (modifications not checked) [HPV16.E2.070 HTL epitope] : 8.70
